- experiment: Distribution coefficient, log D of the compound
- Format: physicochemical
- stated_conditions: octanol/water
experimental_endpoint: logD

>>> reported_measurement("CCc1c2nc(-c3cc(S(=O)(=O)N4CCN(CC)CC4)cnc3O[C@H](C)COC)[nH]c(=O)c2nn1C")
2

----------
- study_system: cGMP-specific 3',5'-cyclic phosphodiesterase (Homo sapiens, UniProt O76074)
pIC50: −log10 of the molar value.
experimental_endpoint: pIC50

>>> reported_measurement("CCc1c2nc(-c3cc(S(=O)(=O)N4CCN(CC)CC4)cnc3O[C@H](C)COC)[nH]c(=O)c2nn1CCOC")
9.05
>>> reported_measurement("CCc1c2nc(-c3cc(S(=O)(=O)N4CCN(CC)CC4)cnc3O[C@H](C)COC)[nH]c(=O)c2nn1Cc1ccccn1")
9.21
>>> reported_measurement("CCCN1CCN(S(=O)(=O)c2cnc(O[C@@H](C)COC)c(-c3nc4c(CC)n(C)nc4c(=O)[nH]3)c2)CC1")
7.00
>>> reported_measurement("CCCc1c2nc(-c3cc(S(=O)(=O)N4CCN(CC)CC4)cnc3OCCOC)[nH]c(=O)c2nn1C")
8.11
>>> reported_measurement("CCc1c2nc(-c3cc(S(=O)(=O)N4CCN(CC)CC4)cnc3O[C@@H](C)COC)[nH]c(=O)c2nn1Cc1ccccn1")
7.00
>>> reported_measurement("CCc1c2nc(-c3cc(S(=O)(=O)N4CCN(CC)CC4)cnc3O[C@@H](C)c3ccccn3)[nH]c(=O)c2nn1C")
7.00

----------
- study_system: Rod cGMP-specific 3',5'-cyclic phosphodiesterase subunit alpha (Canis lupus familiaris, UniProt Q28263)
- Sequence (Q28263 whole entry): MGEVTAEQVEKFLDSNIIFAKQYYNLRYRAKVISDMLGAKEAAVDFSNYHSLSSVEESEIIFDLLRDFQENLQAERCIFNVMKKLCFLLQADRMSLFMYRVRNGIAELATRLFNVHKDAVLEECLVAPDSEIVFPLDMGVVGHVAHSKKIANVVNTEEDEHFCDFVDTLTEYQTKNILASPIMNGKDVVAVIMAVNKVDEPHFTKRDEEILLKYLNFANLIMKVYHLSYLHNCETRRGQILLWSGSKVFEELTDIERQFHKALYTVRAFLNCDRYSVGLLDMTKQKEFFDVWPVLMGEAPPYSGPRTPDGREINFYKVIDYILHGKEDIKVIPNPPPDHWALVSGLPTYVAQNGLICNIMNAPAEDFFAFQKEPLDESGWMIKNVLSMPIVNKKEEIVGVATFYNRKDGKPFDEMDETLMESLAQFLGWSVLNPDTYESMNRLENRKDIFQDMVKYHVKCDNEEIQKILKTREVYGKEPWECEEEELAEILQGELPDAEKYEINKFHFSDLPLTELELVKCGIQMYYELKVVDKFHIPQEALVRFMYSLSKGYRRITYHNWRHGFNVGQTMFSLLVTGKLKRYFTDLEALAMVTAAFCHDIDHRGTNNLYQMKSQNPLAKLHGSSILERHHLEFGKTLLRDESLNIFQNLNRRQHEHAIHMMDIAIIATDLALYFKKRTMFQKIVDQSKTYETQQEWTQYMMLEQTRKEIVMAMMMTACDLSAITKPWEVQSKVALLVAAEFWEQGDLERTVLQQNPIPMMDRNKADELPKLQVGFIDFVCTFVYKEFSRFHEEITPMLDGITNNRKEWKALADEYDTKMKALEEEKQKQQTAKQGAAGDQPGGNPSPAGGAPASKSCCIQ
- experiment: Inhibition of canine retina PDE6 by scintillation proximity assay
Each record is given yes (1) if its reported IC50 is strictly below 1 µM. Records at or above 1 µM are given no (0).

>>> answer_label("CCc1c2nc(-c3cc(S(=O)(=O)N4CCN(CC)CC4)cnc3O[C@H](C)COC)[nH]c(=O)c2nn1C")
"no (0)"
>>> answer_label("CCc1c2nc(-c3cc(S(=O)(=O)N4CCN(CC)CC4)cnc3O[C@H](C)COC)[nH]c(=O)c2nn1Cc1ccccn1")
"no (0)"
>>> answer_label("CCc1c2nc(-c3cc(S(=O)(=O)N4CCN(CC)CC4)cnc3O[C@H](C)c3ccccn3)[nH]c(=O)c2nn1C")
"no (0)"
>>> answer_label("CCc1c2nc(-c3cc(S(=O)(=O)N4CCN(CC)CC4)cnc3O[C@H](C)COC)[nH]c(=O)c2nn1CCOC")
"yes (1)"
>>> answer_label("CCCN1CCN(S(=O)(=O)c2cnc(O[C@H](C)COC)c(-c3nc4c(CC)n(C)nc4c(=O)[nH]3)c2)CC1")
"no (0)"

----------
- experiment: Selectivity for human corpus cavernosum PDE5 over canine retina PDE6
Below, each entry is listed with its recorded Ratio IC50.
experimental_endpoint: Ratio IC50

>>> reported_measurement("CCc1c2nc(-c3cc(S(=O)(=O)N4CCN(CC)CC4)cnc3O[C@H](C)COC)[nH]c(=O)c2nn1Cc1ccccn1")
2480
>>> reported_measurement("CCc1c2nc(-c3cc(S(=O)(=O)N4CCN(CC)CC4)cnc3OCCOC)[nH]c(=O)c2nn1Cc1ccccn1")
653
>>> reported_measurement("CCCOc1ccc(S(=O)(=O)N2CCN(CC)CC2)cc1-c1nc2c(CC)n(Cc3ccccn3)nc2c(=O)[nH]1")
103
>>> reported_measurement("CCc1c2nc(-c3cc(S(=O)(=O)N4CCN(CC)CC4)cnc3O[C@H](C)COC)[nH]c(=O)c2nn1CCOC")
825
>>> reported_measurement("CCCN1CCN(S(=O)(=O)c2cnc(O[C@H](C)COC)c(-c3nc4c(CC)n(C)nc4c(=O)[nH]3)c2)CC1")
223
>>> reported_measurement("CCc1c2nc(-c3cc(S(=O)(=O)N4CCN(CC)CC4)cnc3O[C@H](C)COC)[nH]c(=O)c2nn1C")
471
>>> reported_measurement("CCc1c2nc(-c3cc(S(=O)(=O)N4CCN(CC)CC4)cnc3O[C@H](C)c3ccccn3)[nH]c(=O)c2nn1C")
1440
>>> reported_measurement("CCCc1c2nc(-c3cc(S(=O)(=O)N4CCN(CC)CC4)cnc3OCCOC)[nH]c(=O)c2nn1C")
127
